# Type: in vivo, human
# CONDITION INFO: both, human, plasma, oral, 150 mg, Mean half-life, healthy subjects
PROPERTY LABEL: half-life (min)
Please state the figure in min; there is no need to write the unit.

-- ask Which value of half-life has been reported for COc1ccc2c(O[C@@H]3C[C@H]4C(=O)N[C@]5(C(=O)NS(=O)(=O)C6CC6)C[C@H]5/C=C\CCCCN(C)C(=O)[C@@H]4C3)cc(-c3nc(C(C)C)cs3)nc2c1C [simeprevir] in the records?
-- reply 1000
